# target of assay: QuickSwitch Quant HLA-A*02:01 Tetramers (PE or APC labeled) (MBL International), A*02:0
# measurement protocol: QuickSwitch Quant tetramer control peptide exchange
readout: % Peptide Exchange (%)
Respond numerically; units are % and should not be typed.

Solved cases (5 shown):
AMDEFIERYKL (modifications not checked) ... 96.9
VMAYITGGV (modifications not checked) ... 99.1
TLATHGLAAV (modifications not checked) ... 98
SLPGVFCGV (modifications not checked) ... 98
VMAYITGGVV (modifications not checked) ... 99.1

*Q* Recorded % Peptide Exchange of YIDIGNYTV (modifications not checked) , please.
*A* 97.9

*Q* Recorded % Peptide Exchange of VMVELVAEL (modifications not checked) , please.
*A* 98.6

*Q* Recorded % Peptide Exchange of VLYQDVNCTEV (modifications not checked) , please.
*A* 97.9
